target: RORγt ligand-binding domain (RORγt-LBD) (Homo sapiens); construct: 20 nM recombinantly expressed RORγ-LBD fused to GST; assay: Time-resolved FRET (TR-FRET) RORγt coactivator assay; settings: GST-RORγ-LBD, biotinylated RIP140 peptide, coactivator displacement
Sequence (P51449 269-508 limits assumed): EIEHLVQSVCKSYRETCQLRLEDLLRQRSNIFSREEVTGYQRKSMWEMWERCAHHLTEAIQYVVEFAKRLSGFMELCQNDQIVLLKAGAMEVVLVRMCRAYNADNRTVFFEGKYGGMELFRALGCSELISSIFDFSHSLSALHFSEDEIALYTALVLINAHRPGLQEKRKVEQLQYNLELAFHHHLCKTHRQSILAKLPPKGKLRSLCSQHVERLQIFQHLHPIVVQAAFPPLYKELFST
pIC50: −log10 of the molar value.

compound: Cc1cc(C(NC(=O)Cc2ccc3[nH]cc(CCC(=O)O)c3c2)c2ccccc2N2CCCCC2)oc1C (stereo not shown)
pIC50: > 6.00
//
compound: Cc1ccc(C(NC(=O)Cc2ccc3[nH]cc(CCC(=O)O)c3c2)c2ccccc2)c(OC(C)C)c1 (stereo not shown)
pIC50: > 6.00
//
compound: Cc1ccc(C(NC(=O)Cc2ccc3[nH]cc(CCC(=O)O)c3c2)c2ccccc2)c(N2CCN(C)CC2)c1 (stereo not shown)
pIC50: 5.00 to 6.00
//
compound: Cc1ccc(C(NC(=O)Cc2ccc3[nH]cc(CCC(=O)OC(C)(C)C)c3c2)c2ccccc2)c(N2CCN(C)CC2)c1 (stereo not shown)
pIC50: 5.00 to 6.00
//
compound: O=C(O)CCc1c[nH]c2ccc(CC(=O)NC(c3ccccc3)c3ccccc3N3CCC(F)(F)CC3)cc12 (stereo not shown)
pIC50: 5.00 to 6.00
//
compound: Cc1ccc(C(NC(=O)Cc2ccc3[nH]cc(CCC(=O)O)c3c2)c2ccccc2)c(F)c1 (stereo not shown)
pIC50: 5.00 to 6.00
//
compound: O=C(O)CCc1c[nH]c2ccc(CC(=O)NC(c3ccccc3)c3ccccc3N3CC=CCC3)cc12 (stereo not shown)
pIC50: > 6.00
